Origin of measurements: the supplement of paper PMC10126150

Each record here notes measured switch fluorescence ratio.
- System: ATP;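 also: ATP exposure 15 min at 22 °C before imaging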
- protocol: switch fluorescence ratio, 500 uM ATP over buffer (Cy3 cluster intensity, sum of 5 cycles each) (fold (ratio)); higher = stronger signal-on switching upon ATP binding; sequences stand for … in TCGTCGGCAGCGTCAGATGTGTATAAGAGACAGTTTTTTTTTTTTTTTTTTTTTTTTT…TC
- experimental parameters: aptamer strand: ATP DNA aptamer (quencher-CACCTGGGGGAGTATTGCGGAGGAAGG + anchor), 100 nM annealed; ATP concentration: 500 uM

{"columns": ["residue string", "switch fluorescence ratio"],
 "data": [
  ["AAAGGATGAG", 0.979],
  ["TTTAGGTAGA", 1.02],
  ["AGAAGATGGT", 0.983],
  ["CAGTGCATC", 0.972],
  ["CGATGGTAGA", 1.03],
  ["ACGATTATGC", 1.04],
  ["TGGTTTGGCG", 1.02],
  ["ATGCAAGGGC", 1.08],
  ["GGGATCTGTT", 1.01],
  ["ATGAGGTTGG", 0.973],
  ["GACCTCACAT", 1.18],
  ["GTCCGTGTTA", 0.994],
  ["GGAATACTTT", 1.01],
  ["GGCATTGGCA", 0.995],
  ["GCGTTAAGTT", 0.984],
  ["GGATTTGTGT", 1.01],
  ["TGGCGAACGG", 1.01],
  ["TTATTGATCC", 0.998],
  ["GGGTAGCCTG", 0.982],
  ["GGGGTGTGAC", 1.02],
  ["CATTGTAAAG", 1.02],
  ["AATTAATGGA", 0.997],
  ["GCCGACAAGC", 1.05],
  ["AGAAAGGATT", 1.01],
  ["TTATCATTTA", 1.01],
  ["TAAATGACTA", 0.987],
  ["TTTGGGAAAA", 1.05],
  ["GTTTTGCTGT", 0.986],
  ["GTTTTTGTTT", 1],
  ["CATTTCTGTT", 1],
  ["AGTTCTTTGT", 0.985],
  ["GGACAATATA", 1],
  ["GCAGCATGC", 1.1],
  ["TTGGGATCCG", 0.985],
  ["AACCGGCTTA", 0.999],
  ["GGCTGGCAGC", 1],
  ["GGGGGTTGTT", 0.997],
  ["GACGATACGT", 1.14],
  ["GTTGCGACGG", 1],
  ["TTGAAAGTTC", 1],
  ["TTTATACTGT", 1.03],
  ["TTAAGTAGGC", 1.16],
  ["TGTTAGGAGA", 1],
  ["GTGTGAGGGC", 0.948],
  ["GCATGTAGAT", 0.998],
  ["GGGGCGGGGA", 0.996]
]}

###

- Tested on: ATP;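 also: ATP exposure 15 min at 22 °C before imaging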
- protocol: switch fluorescence ratio, 500 uM ATP over buffer (Cy3 cluster intensity, sum of 5 cycles each) (fold (ratio)); higher = stronger signal-on switching upon ATP binding; sequences stand for … in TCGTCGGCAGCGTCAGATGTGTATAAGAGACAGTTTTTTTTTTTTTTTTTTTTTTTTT…TC
- experimental parameters: aptamer strand: ATP DNA aptamer (quencher-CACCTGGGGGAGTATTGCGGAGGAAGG + anchor), 100 nM annealed; ATP concentration: 500 uM
experimental endpoint: switch fluorescence ratio

{"columns": ["residue string", "experimental endpoint", "result"],
 "data": [
  ["GATGTTTGCG", "switch fluorescence ratio", 0.994],
  ["TGGTTCTTAA", "switch fluorescence ratio", 1.01],
  ["AAGTTCAGTA", "switch fluorescence ratio", 0.967],
  ["TAGGTTGTGG", "switch fluorescence ratio", 0.994],
  ["CTAAGGCGTT", "switch fluorescence ratio", 0.999],
  ["GGGTGAGCGA", "switch fluorescence ratio", 1.05],
  ["TGTTTTGTAG", "switch fluorescence ratio", 1],
  ["AATAGGACGG", "switch fluorescence ratio", 1.03],
  ["CCTGGAGTTA", "switch fluorescence ratio", 1.04],
  ["TGGACAACTT", "switch fluorescence ratio", 0.995],
  ["CGGGGAATTT", "switch fluorescence ratio", 1.01],
  ["TTGGGATTAA", "switch fluorescence ratio", 1.05],
  ["GGTTTAATTC", "switch fluorescence ratio", 1.01],
  ["CAGTAGAGG", "switch fluorescence ratio", 0.979],
  ["CGGACAGGAG", "switch fluorescence ratio", 0.98],
  ["CGAAGGGACG", "switch fluorescence ratio", 1.05],
  ["TAGATCAAG", "switch fluorescence ratio", 1.04],
  ["CCTGGTTGTG", "switch fluorescence ratio", 0.992],
  ["AATCTGGTGT", "switch fluorescence ratio", 1.02],
  ["TTATGAAGGA", "switch fluorescence ratio", 1.02],
  ["TAATTAATGC", "switch fluorescence ratio", 1.02],
  ["ATTCAAAAAA", "switch fluorescence ratio", 0.999],
  ["TTAAACGTTA", "switch fluorescence ratio", 1.32],
  ["CGGGTGGGAA", "switch fluorescence ratio", 1],
  ["CGTGAAGGGA", "switch fluorescence ratio", 1.01],
  ["ATTAAGTTTT", "switch fluorescence ratio", 1],
  ["TTCGGGGCCA", "switch fluorescence ratio", 0.991],
  ["CGAGTATGGG", "switch fluorescence ratio", 0.986],
  ["CGTCATGGCT", "switch fluorescence ratio", 0.957],
  ["TTAGCGCCGG", "switch fluorescence ratio", 1.03],
  ["CAAAAGTGGT", "switch fluorescence ratio", 1.01],
  ["ATTGGGGATT", "switch fluorescence ratio", 1.01],
  ["GGTCCTGCAA", "switch fluorescence ratio", 1.76],
  ["TGGTTGGGTT", "switch fluorescence ratio", 1],
  ["CGGGCCTTGA", "switch fluorescence ratio", 0.981],
  ["CGGAGTGGGG", "switch fluorescence ratio", 1.01],
  ["GTTGATAGCG", "switch fluorescence ratio", 0.991],
  ["TCTGGAAGGT", "switch fluorescence ratio", 1.04],
  ["ATCGAGGCAC", "switch fluorescence ratio", 1.06],
  ["GGGGTGCCAA", "switch fluorescence ratio", 0.975],
  ["GTGGTAAATG", "switch fluorescence ratio", 1.01],
  ["GGGGAGAATA", "switch fluorescence ratio", 1.01],
  ["GCTCCGGCGG", "switch fluorescence ratio", 1.24],
  ["ACTTATGTTG", "switch fluorescence ratio", 0.995],
  ["CTGCTACAGT", "switch fluorescence ratio", 1.03],
  ["TGATTTATG", "switch fluorescence ratio", 1.01],
  ["AGTAGGGCGG", "switch fluorescence ratio", 1],
  ["AGATTAGAT", "switch fluorescence ratio", 0.993],
  ["TCAGCGGGGA", "switch fluorescence ratio", 1],
  ["TAAACCGGTT", "switch fluorescence ratio", 0.984],
  ["TAAGGTGGTA", "switch fluorescence ratio", 1.02],
  ["GCTTAGAGGA", "switch fluorescence ratio", 1],
  ["GGCTACTTTA", "switch fluorescence ratio", 1.07],
  ["GAATTATATT", "switch fluorescence ratio", 0.988],
  ["ATAGCTTGAG", "switch fluorescence ratio", 1.01],
  ["CAATTTAGTG", "switch fluorescence ratio", 1],
  ["CCCATTTGCT", "switch fluorescence ratio", 1.02],
  ["TTCGTGGTTT", "switch fluorescence ratio", 1.03],
  ["TTTGTTATTG", "switch fluorescence ratio", 1.3]
]}
